Answer each item with its documented shrunken log2 fold change.
Test system: Escherichia coli TOP10
experiment: shrunken log2 fold change of peptide-encoding DNA abundance (4.5 h post-induction vs induction); higher = less antimicrobial activity (less host growth inhibition)
condition_details: time post-induction: 4.5 h; library: site-saturation at positions 5, 18, 19, 20
Answers are plain numbers.

Examples with answers:
{"ordered_residues": "RRIRYRPPRLPRPRPRPRNSPRP", "study_system": "Escherichia coli TOP10", "meas_value": 0.022}
{"ordered_residues": "RRIRYRPPRLPRPRPRPGVWPRP", "study_system": "Escherichia coli TOP10", "meas_value": 0.171}
{"ordered_residues": "RRIRVRPPRLPRPRPRPSDKPRP", "study_system": "Escherichia coli TOP10", "meas_value": -0.153}

Need shrunken log2 fold change for each of these sequences.
1. RRIRARPPRLPRPRPRPGCLPRP
2. RRIRERPPRLPRPRPRPRSCPRP

# output
0.419
0.0568

Need shrunken log2 fold change for each of these sequences.
1. RRIRGRPPRLPRPRPRPYNYPRP
2. RRIRKRPPRLPRPRPRPIRGPRP

# output
-0.129
0.0181

----------
Answer each item with its documented shrunken log2 fold change.
Test system: Escherichia coli TOP10
experiment: shrunken log2 fold change of peptide-encoding DNA abundance (4.5 h post-induction vs induction); higher = less antimicrobial activity (less host growth inhibition)
condition_details: time post-induction: 4.5 h; library: site-saturation at positions 5, 18, 19, 20
Numbers only.

Examples with answers:
{"ordered_residues": "RRIRDRPPRLPRPRPRPMWLPRP", "meas_value": 0.015}
{"ordered_residues": "RRIRARPPRLPRPRPRPQNKPRP", "meas_value": -0.232}
{"ordered_residues": "RRIRKRPPRLPRPRPRPVVCPRP", "meas_value": 0.126}

Need shrunken log2 fold change for each of these sequences.
1. RRIRTRPPRLPRPRPRPSGWPRP
2. RRIRERPPRLPRPRPRPLHMPRP
3. RRIRNRPPRLPRPRPRPTKMPRP

# output
1. -0.00504
2. -0.203
3. 0.00053

Need shrunken log2 fold change for each of these sequences.
1. RRIRARPPRLPRPRPRPFYGPRP
2. RRIRHRPPRLPRPRPRPEVGPRP
3. RRIRWRPPRLPRPRPRPLWPPRP
4. RRIRKRPPRLPRPRPRPTTAPRP
5. RRIRVRPPRLPRPRPRPIVQPRP

# output
[-0.0165, 0.0518, 0.275, 0.271, -0.223]

----------
System: Escherichia coli TOP10;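 also: peptides expressed intracellularly from a pBAD plasmid library in pooled LB shake-flask culture, induced with 0.3% L-arabinose, DNA abundance read by NGS, three biological replicates, DESeq2 with apeglm shrinkage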
experiment: shrunken log2 fold change of peptide-encoding DNA abundance (4.5 h post-induction vs induction); higher = less antimicrobial activity (less host growth inhibition)
condition_details: time post-induction: 4.5 h; library: site-saturation at positions 5, 18, 19, 20
property: shrunken log2 fold change
Numbers only.

Examples with answers:
{"ordered_residues": "RRIRWRPPRLPRPRPRPGYDPRP", "property": "shrunken log2 fold change", "meas_value": -0.0098}
{"ordered_residues": "RRIRIRPPRLPRPRPRPRIEPRP", "property": "shrunken log2 fold change", "meas_value": -0.246}
{"ordered_residues": "RRIRCRPPRLPRPRPRPAMGPRP", "property": "shrunken log2 fold change", "meas_value": -0.0638}
{"ordered_residues": "RRIRFRPPRLPRPRPRPHAAPRP", "property": "shrunken log2 fold change", "meas_value": 0.062}
{"ordered_residues": "RRIRGRPPRLPRPRPRPQEQPRP", "property": "shrunken log2 fold change", "meas_value": 0.458}

Need shrunken log2 fold change for each of these sequences.
1. RRIRQRPPRLPRPRPRPNLYPRP
2. RRIRQRPPRLPRPRPRPVMDPRP
3. RRIRCRPPRLPRPRPRPMYNPRP

# output
[-0.647, -0.39, -0.535]

Need shrunken log2 fold change for each of these sequences.
1. RRIRHRPPRLPRPRPRPTHPPRP
2. RRIRDRPPRLPRPRPRPVCHPRP
3. RRIRWRPPRLPRPRPRPRWAPRP

# output
1. 0.155
2. -0.0164
3. 0.662

Need shrunken log2 fold change for each of these sequences.
1. RRIRRRPPRLPRPRPRPQDHPRP
2. RRIRVRPPRLPRPRPRPSPMPRP
3. RRIRIRPPRLPRPRPRPTVFPRP
4. RRIRERPPRLPRPRPRPQVRPRP
5. RRIRKRPPRLPRPRPRPCIKPRP
6. RRIRARPPRLPRPRPRPFLWPRP

# output
1. -0.0159
2. -0.261
3. -0.237
4. -0.0385
5. 0.193
6. -0.0716
